- test: The drug is tested on Z-006 corresponding to mouse gut metagenome with ENA study accession number: PRJEB37062 and ENA sample accession number: ERS12561806 for biotransformation under anaerobic condition. The drug concentrations were measured over 9 timepoints collected between 0 and 24 hours of incubation by liquid-chromatography-coupled mass spectrometry (LC–MS); also: call rule not given here
- condition_set: 2 µM
quantity_name: Bacterial Biotransformation

[[record]]
molecule = "CNC(=C[N+](=O)[O-])NCCSCc1ccc(CN(C)C)o1"
assay_result = "Compound metabolized"

[[record]]
molecule = "CCOc1ccc(NC(C)=O)cc1"
assay_result = "Compound NOT metabolized"

[[record]]
molecule = "CCCCC1=NC2(CCCC2)C(=O)N1Cc1ccc(-c2ccccc2-c2nnn[nH]2)cc1"
assay_result = "Compound metabolized"

[[record]]
molecule = "CC(=O)CC(c1ccccc1)c1c(O)c2ccccc2oc1=O (stereo not drawn)"
assay_result = "Compound metabolized"

[[record]]
molecule = "COc1c(C)c2c(c(O)c1C/C=C(\\C)CCC(=O)OCCN1CCOCC1)C(=O)OC2 [MYCOPHENOLATE MOFETIL]"
assay_result = "Compound metabolized"

[[record]]
molecule = "CC(=O)OCC(=O)[C@@]1(O)[C@@H](C)C[C@H]2[C@@H]3CCC4=CC(=O)C=C[C@]4(C)[C@@]3(F)[C@@H](O)C[C@@]21C [BETAMETHASONE ACETATE]"
assay_result = "Compound metabolized"

[[record]]
molecule = "Fc1ccc([C@@H]2CCNC[C@H]2COc2ccc3c(c2)OCO3)cc1"
assay_result = "Compound NOT metabolized"

[[record]]
molecule = "CCCCC(=O)N(Cc1ccc(-c2ccccc2-c2nnn[nH]2)cc1)[C@H](C(=O)O)C(C)C"
assay_result = "Compound NOT metabolized"


The values you see were collected from ChEMBL document CHEMBL5724914.
